# tested-target: α4β1 integrin (on J6.77 cells) (UniProt P13612 34-1032; P05556 21-798, limits assumed)
# measurement-description: cell-based or functional assay
measurement-label: Percent Inhibition (J6.77 adhesion to CS-1 peptide of fibronectin, 5 ug/ml)
Give the value; after it, write the unit.

Req: Supply Percent Inhibition (J6.77 adhesion to CS-1 peptide of fibronectin, 5 ug/ml) value. Item: sc 188 (antibody, V domains shown) VH: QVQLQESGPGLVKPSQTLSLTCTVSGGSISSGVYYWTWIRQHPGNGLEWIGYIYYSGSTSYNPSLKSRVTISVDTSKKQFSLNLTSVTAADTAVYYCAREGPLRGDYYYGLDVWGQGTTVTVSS VL: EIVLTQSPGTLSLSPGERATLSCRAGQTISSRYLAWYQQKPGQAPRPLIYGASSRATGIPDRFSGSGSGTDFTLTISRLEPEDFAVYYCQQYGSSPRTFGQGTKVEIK
Resp: 2%

Req: Supply Percent Inhibition (J6.77 adhesion to CS-1 peptide of fibronectin, 5 ug/ml) value. Item: sc 264 RAD (antibody, V domains shown, Variable domains only) VH: QVQLQESGPGLVKPSQTLSLTCTVSGGSISSGGYYWSWIRQHPGKGLEWIGYIYYSGRTYNNPSLKSRVTISVDTSKNQFSLKLSSVTAADTAVYYCARVATGRADYHFYAMDVWGQGTTVTVSS VL: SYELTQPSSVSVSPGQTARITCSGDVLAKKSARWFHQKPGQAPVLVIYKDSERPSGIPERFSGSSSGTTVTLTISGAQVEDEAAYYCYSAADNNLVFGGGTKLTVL
Resp: -2%

Req: Supply Percent Inhibition (J6.77 adhesion to CS-1 peptide of fibronectin, 5 ug/ml) value. Item: sc 188 SDM (antibody, V domains shown, Variable domains only) VH: QVQLQESGPGLVKPSQTLSLTCTVSGGSISSGVYYWTWIRQHPGNGLEWIGYIYYSGSTSYNPSLKSRVTISVDTSKKQFSLKLTSVTAADTAVYYCAREGPLRGDYYYGLDVWGQGTTVTVSS VL: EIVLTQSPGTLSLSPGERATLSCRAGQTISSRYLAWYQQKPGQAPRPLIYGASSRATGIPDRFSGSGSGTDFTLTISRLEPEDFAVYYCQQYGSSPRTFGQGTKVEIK
Resp: -6%

Req: Supply Percent Inhibition (J6.77 adhesion to CS-1 peptide of fibronectin, 5 ug/ml) value. Item: sc 264 (antibody, V domains shown, RGD in heavy chain CDR3) VH: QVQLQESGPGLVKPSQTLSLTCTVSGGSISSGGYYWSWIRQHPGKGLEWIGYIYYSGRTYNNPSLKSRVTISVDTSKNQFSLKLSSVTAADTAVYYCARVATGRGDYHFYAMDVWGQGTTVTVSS VL: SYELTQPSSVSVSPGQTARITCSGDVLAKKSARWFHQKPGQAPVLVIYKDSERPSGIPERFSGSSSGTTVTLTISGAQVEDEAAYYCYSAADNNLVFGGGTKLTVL
Resp: -30%
